testedTarget: Skp2 (UniProt Q13309 1-424, limits assumed)
Sequence (Q13309 whole entry): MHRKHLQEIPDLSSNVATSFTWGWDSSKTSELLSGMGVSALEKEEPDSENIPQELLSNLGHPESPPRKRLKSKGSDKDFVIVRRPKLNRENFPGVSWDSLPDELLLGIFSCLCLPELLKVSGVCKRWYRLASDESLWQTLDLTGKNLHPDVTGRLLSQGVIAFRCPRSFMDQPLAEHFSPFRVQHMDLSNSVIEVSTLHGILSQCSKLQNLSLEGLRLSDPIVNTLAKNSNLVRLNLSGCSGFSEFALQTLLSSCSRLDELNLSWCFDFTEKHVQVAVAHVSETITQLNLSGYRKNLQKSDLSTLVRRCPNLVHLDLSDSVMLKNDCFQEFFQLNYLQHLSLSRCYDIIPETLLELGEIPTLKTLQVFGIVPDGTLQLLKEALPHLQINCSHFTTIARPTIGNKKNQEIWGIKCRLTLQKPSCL
protocolText: cell-based or functional assay
Starred links: 1 amine or outer side, 2 acyl side, 3 side chain; linkers in the order of their positions; H or OH if unused. Non-standard residues stand in square brackets, D forms with d. *: point of attachment. Tyr(Me) = O-methyl-L-tyrosine, COc1ccc(C[C@H](N[*:1])C(=O)[*:2])cc1; Phe(4-NO2) = N[C@@H](Cc1ccc([N+](=O)[O-])cc1)C(=O)O; 2Naphthylsulfonyl = O=S(=O)(c1ccc2ccccc2c1)*; E(Me) = COC(=O)CC[C@H](N[*:1])C(=O)[*:2]; Phe(3-F) = N[C@@H](Cc1cccc(F)c1)C(=O)O; 1Nal = N[C@@H](Cc1cccc2ccccc12)C(=O)O; Phe(2-F) = N[C@@H](Cc1ccccc1F)C(=O)O; Suc = O=C(CCC(=O)[*:2])[*:1]; Tos = Cc1ccc(S(=O)(=O)*)cc1; Moc = COC(=O)*
The following binders are listed with their measured % Inhibition Skp2 @ (100 µM) values.
Respond numerically; units are % and should not be typed.

Here's what some known entries look like.
binder	unitDescriptor	% Inhibition Skp2 @ (100 µM)
2Naphthylsulfonyl-[dD]EG[Phe(3-F)]WE-NH2 (SMILES NC(=O)[C@H](CCC(=O)O)NC(=O)[C@H](Cc1c[nH]c2ccccc12)NC(=O)[C@H](Cc1cccc(F)c1)NC(=O)CNC(=O)[C@H](CCC(=O)O)NC(=O)[C@@H](CC(=O)O)NS(=O)(=O)c1ccc2ccccc2c1, also called UBP031) [2-NaphthylSO2-dEGF(3F)WE-NH2]	%	17
Tos-[dD]EG[Phe(3-F)]WE-NH2 (SMILES Cc1ccc(S(=O)(=O)N[C@H](CC(=O)O)C(=O)N[C@@H](CCC(=O)O)C(=O)NCC(=O)N[C@@H](Cc2cccc(F)c2)C(=O)N[C@@H](Cc2c[nH]c3ccccc23)C(=O)N[C@@H](CCC(=O)O)C(N)=O)cc1, also called UBP021) [Ts-dEGF(3F)WE-NH2]	%	25
Suc-EG[Phe(3-F)][Phe(4-NO2)]E-NH2 (SMILES NC(=O)[C@H](CCC(=O)O)NC(=O)[C@H](Cc1ccc([N+](=O)[O-])cc1)NC(=O)[C@H](Cc1cccc(F)c1)NC(=O)CNC(=O)[C@H](CCC(=O)O)NC(=O)CCC(=O)O) [Suc-EGF(3F)F(4NO2)E-NH2]	%	3
Moc-[dD]EG[Phe(3-F)]WE-NH2 (SMILES COC(=O)N[C@H](CC(=O)O)C(=O)N[C@@H](CCC(=O)O)C(=O)NCC(=O)N[C@@H](Cc1cccc(F)c1)C(=O)N[C@@H](Cc1c[nH]c2ccccc12)C(=O)N[C@@H](CCC(=O)O)C(N)=O, also called UBP020) [MeO(CO)-dEGF(3F)WE-NH2]	%	16

State its % Inhibition Skp2 @ (100 µM) for this binder: Suc-EG[Phe(2-F)][Tyr(Me)]E-NH2 (SMILES COc1ccc(C[C@H](NC(=O)[C@H](Cc2ccccc2F)NC(=O)CNC(=O)[C@H](CCC(=O)O)NC(=O)CCC(=O)O)C(=O)N[C@@H](CCC(=O)O)C(N)=O)cc1) [Suc-EGF(2F)Y(Me)E-NH2]
4

Recall and state the measured % Inhibition Skp2 @ (100 µM) for Suc-EG[Phe(3-F)][1Nal]E-NH2 [Suc-EGF(3F)1NalE-NH2] .
12

Quote % Inhibition Skp2 @ (100 µM) reported for Tos-[dD]DG[Phe(3-F)]WE-NH2 (SMILES Cc1ccc(S(=O)(=O)N[C@H](CC(=O)O)C(=O)N[C@@H](CC(=O)O)C(=O)NCC(=O)N[C@@H](Cc2cccc(F)c2)C(=O)N[C@@H](Cc2c[nH]c3ccccc23)C(=O)N[C@@H](CCC(=O)O)C(N)=O)cc1, also called UBP025) [Ts-dDGF(3F)WE-NH2] please.
22

Please report the measured % Inhibition Skp2 @ (100 µM) for Tos-[dD]EG[Phe(3-F)]W[E(Me)]-NH2 (also called UBP032) [Ts-dEGF(3F)WE(Me)-NH2]
0
